# assayed.target: Tyrosine-protein kinase ABL2 (Homo sapiens) (UniProt P42684);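 further: values are mean percent inhibition of ARG (ABL2), measured within the GSK PKIS set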
# Sequence (P42684 whole entry): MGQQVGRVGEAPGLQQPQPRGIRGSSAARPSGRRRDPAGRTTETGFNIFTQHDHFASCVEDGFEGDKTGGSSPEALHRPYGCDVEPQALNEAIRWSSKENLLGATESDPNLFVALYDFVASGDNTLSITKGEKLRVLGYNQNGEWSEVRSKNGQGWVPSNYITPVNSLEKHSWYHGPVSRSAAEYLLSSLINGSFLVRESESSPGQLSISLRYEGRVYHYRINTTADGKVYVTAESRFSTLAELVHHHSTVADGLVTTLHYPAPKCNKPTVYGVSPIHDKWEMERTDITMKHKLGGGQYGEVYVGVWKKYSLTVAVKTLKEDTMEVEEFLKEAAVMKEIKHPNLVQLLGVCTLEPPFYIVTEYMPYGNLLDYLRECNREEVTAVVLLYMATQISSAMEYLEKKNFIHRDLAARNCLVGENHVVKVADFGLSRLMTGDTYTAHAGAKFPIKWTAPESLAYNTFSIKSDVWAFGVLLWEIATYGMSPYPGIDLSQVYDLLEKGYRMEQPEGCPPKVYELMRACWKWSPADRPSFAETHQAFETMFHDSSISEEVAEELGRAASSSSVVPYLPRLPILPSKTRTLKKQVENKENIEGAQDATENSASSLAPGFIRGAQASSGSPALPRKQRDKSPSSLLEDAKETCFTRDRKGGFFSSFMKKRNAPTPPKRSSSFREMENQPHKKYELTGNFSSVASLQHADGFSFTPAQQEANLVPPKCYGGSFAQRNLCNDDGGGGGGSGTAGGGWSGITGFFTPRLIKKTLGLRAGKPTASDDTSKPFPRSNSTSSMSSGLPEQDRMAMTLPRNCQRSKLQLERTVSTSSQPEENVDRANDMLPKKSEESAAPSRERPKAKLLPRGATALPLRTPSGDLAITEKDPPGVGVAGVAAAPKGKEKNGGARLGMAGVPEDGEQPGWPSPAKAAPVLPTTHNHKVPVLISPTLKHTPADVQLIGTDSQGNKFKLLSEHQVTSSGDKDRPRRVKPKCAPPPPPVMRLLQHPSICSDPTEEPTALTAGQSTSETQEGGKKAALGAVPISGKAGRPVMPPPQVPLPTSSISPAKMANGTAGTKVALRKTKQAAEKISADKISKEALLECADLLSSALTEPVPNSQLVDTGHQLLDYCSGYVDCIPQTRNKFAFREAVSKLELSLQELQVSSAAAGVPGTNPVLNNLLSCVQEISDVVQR
# measurement.setup: at 0.1 µM
measured.attribute: inhibition
Don't forget the unit after the value.

// known answers, use as guide
smiles_string=COC(=O)c1ccc2c(c1)C(=Cc1cc(Br)c(O)c(Br)c1)C(=O)N2 measured_attribute=inhibition recorded_result=5.66%
smiles_string=CS(=O)(=O)Nc1cccc(-c2ccc3c(NC(=O)C4CC4)n[nH]c3c2)c1 measured_attribute=inhibition recorded_result=2.46%
smiles_string=c1ccc(Nc2ncc(-c3ccccc3)o2)cc1 measured_attribute=inhibition recorded_result=5.2%
smiles_string=COc1cccc(-n2nc(C)c3c(N/N=C(\C)c4ccncc4)ncnc32)c1 measured_attribute=inhibition recorded_result=-0.17%
smiles_string=CCOc1nccc2c1nc(-c1nonc1N)n2CC measured_attribute=inhibition recorded_result=3.48%

q: Consider the compound `CN(C)c1cc2c(Nc3ccc4c(cnn4Cc4ccccc4)c3)ncnc2cn1` and give its measured inhibition.
a: 1.06%

q: // same read-out, input: `NS(=O)(=O)c1cccc(Nc2cc(-c3ccc(F)cc3)n[nH]2)c1`
a: 3.38%

---

# assayed.target: High affinity nerve growth factor receptor (Homo sapiens) (UniProt P04629);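 further: each value is a mean of replicate percent inhibition readings against TRKA kinase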
# Sequence (P04629 33-796 limits assumed): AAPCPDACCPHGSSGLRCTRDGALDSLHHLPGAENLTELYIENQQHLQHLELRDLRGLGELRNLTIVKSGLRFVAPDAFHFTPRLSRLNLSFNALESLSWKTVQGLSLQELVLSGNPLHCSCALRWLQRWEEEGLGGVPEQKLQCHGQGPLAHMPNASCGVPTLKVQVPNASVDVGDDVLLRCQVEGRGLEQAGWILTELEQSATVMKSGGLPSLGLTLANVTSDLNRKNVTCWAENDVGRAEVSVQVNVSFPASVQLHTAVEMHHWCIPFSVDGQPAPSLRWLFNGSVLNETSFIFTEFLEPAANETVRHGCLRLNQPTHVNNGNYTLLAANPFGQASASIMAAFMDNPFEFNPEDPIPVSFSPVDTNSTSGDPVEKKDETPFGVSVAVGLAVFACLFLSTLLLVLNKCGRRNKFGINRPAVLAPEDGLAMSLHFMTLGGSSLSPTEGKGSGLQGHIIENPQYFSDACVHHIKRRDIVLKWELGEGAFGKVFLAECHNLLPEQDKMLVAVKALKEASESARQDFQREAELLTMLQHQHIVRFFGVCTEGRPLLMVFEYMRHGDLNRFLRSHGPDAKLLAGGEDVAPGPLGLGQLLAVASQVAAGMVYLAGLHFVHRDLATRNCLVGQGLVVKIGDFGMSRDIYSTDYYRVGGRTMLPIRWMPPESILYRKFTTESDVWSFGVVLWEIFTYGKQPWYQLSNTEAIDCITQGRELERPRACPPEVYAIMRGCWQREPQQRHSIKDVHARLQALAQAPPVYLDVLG
# measurement.setup: at 0.1 µM
measured.attribute: inhibition
Don't forget the unit after the value.

q: Consider the compound `NS(=O)(=O)c1ccc(Nc2cc(-c3cccc(O)c3)n[nH]2)cc1` and give its measured inhibition.
a: 4.76%

q: // same read-out, input: `O=S(=O)(CCOCc1ccc(-c2ccc3ncnc(Nc4ccc(OCc5cccc(F)c5)c(Cl)c4)c3c2)o1)c1ccccc1`
a: -0.1%

q: // same read-out, input: `CCS(=O)(=O)c1ccc(OC)c(Nc2ncc(-c3cccc(OC)c3)o2)c1`
a: 7.51%

q: // same read-out, input: `[O-][S+]1CCN(Cc2ccc(-c3ccc4ncnc(Nc5ccc(OCc6ccccc6)c(Cl)c5)c4c3)o2)CC1`
a: 1.88%

q: // same read-out, input: `Cc1ccc2c(-c3ccnc(Nc4ccc5c(c4)OCCO5)n3)c(-c3ccc(C(F)(F)F)cc3)nn2n1`
a: -1.98%

q: // same read-out, input: `COc1cc2ncnc(Nc3ccc4c(cnn4Cc4ccccc4)c3)c2cc1OC`
a: 0.45%

q: // same read-out, input: `CCOc1nccc2c1nc(-c1nonc1N)n2CC`
a: -1.22%

---

# assayed.target: Tyrosine-protein kinase HCK (Homo sapiens) (UniProt P08631);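 further: values are mean inhibition of HCK, taken from the GSK_PKIS kinase profiling screen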
# Sequence (P08631 2-526 limits assumed): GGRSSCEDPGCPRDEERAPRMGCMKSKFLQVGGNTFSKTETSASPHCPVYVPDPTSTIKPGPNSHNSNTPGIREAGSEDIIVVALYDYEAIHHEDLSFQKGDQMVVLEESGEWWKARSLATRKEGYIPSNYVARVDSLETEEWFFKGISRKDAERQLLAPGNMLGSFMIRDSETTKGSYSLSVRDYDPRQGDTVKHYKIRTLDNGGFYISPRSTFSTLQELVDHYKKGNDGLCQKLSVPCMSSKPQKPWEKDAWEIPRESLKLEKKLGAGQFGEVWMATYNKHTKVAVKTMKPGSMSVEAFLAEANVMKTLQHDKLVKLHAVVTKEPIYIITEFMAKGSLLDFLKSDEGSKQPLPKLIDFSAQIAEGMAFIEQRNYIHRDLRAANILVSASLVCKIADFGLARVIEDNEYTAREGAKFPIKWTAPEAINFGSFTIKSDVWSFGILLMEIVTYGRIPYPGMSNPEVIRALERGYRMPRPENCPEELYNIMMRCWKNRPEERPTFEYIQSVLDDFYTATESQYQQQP
# measurement.setup: at 0.1 µM
measured.attribute: inhibition (%)
State just the number; it will be interpreted in %.

// known answers, use as guide
smiles_string=ON=C1CCc2cc(-c3nc(C4CCNCC4)[nH]c3-c3ccncc3)ccc21 assayed_target="Tyrosine-protein kinase HCK (Homo sapiens) (UniProt P08631)" recorded_result=0.2
smiles_string=c1ccc(Cc2nc3ccc(Nc4ncnc5ccccc45)cc3[nH]2)cc1 assayed_target="Tyrosine-protein kinase HCK (Homo sapiens) (UniProt P08631)" recorded_result=3.53
smiles_string=NS(=O)(=O)c1ccc(NC=C2C(=O)Nc3ccc4ncsc4c32)cc1 assayed_target="Tyrosine-protein kinase HCK (Homo sapiens) (UniProt P08631)" recorded_result=12.2

q: Consider the molecule `Cc1cc(-c2ccccn2)cc(C)c1/C=C/c1cncc(-c2nn[nH]n2)c1` and give its measured inhibition.
a: 7.16

q: // same read-out, input: `COc1cc2ncnc(Nc3ccc(C)c(O)c3)c2cc1OC`
a: 44.9

q: // same read-out, input: `Oc1cccc(-c2nc(-c3ccccc3)[nH]c2-c2ccncc2)c1`
a: 13.7

q: // same read-out, input: `COc1ccc(-c2nn3ncccc3c2-c2ccnc(Nc3cccc(C(F)(F)F)c3)n2)cc1`
a: 4.3

q: // same read-out, input: `COc1cccc(-n2ncc3c(N/N=C/c4ccc(C)cc4)ncnc32)c1`
a: 7.32

q: // same read-out, input: `Cc1ccc(NC(=O)CC2CC2)cc1-c1ccc(C(=O)NCC2CC2)cc1`
a: 9

q: // same read-out, input: `CN(C)CCCn1c(-c2nonc2N)nc2cnccc21`
a: 5.43

q: // same read-out, input: `CCS(=O)(=O)c1ccc(OC)c(Nc2nccc(N(C)c3ccc4c(C)n[nH]c4c3)n2)c1`
a: 39.5

q: // same read-out, input: `CCOc1nccc2c1nc(-c1nonc1N)n2CC`
a: 4.58

q: // same read-out, input: `CN1CCN(C(=O)c2ccc(NC(=O)Nc3ccc(N(C)c4ccnc(Nc5ccc(CS(C)(=O)=O)cc5)n4)cc3)cc2)CC1`
a: 3.98

q: // same read-out, input: `CCn1c(-c2nonc2N)nc2c(C#CC(C)(C)O)nc(OCCNC)cc21`
a: 5.42

q: // same read-out, input: `COc1cccc(-n2nc(C)c3c(N/N=C(\C)c4ccncc4)ncnc32)c1`
a: 1.01

q: // same read-out, input: `NC(=O)c1cccc(Nc2nccc(Nc3cccc(F)c3)n2)c1`
a: 3.16

q: // same read-out, input: `Cc1ccc2c(-c3ccnc(Nc4cccc(C(F)(F)F)c4)n3)c(-c3ccccc3)nn2n1`
a: 11.3

q: // same read-out, input: `[O-][S+]1CCN(Cc2ccc(-c3ccc4ncnc(Nc5ccc(OCc6ccccc6)c(Cl)c5)c4c3)o2)CC1`
a: 2.6

q: // same read-out, input: `CN(C)C(=O)O[C@H]1CN[C@H](C#Cc2cc3ncnc(Nc4ccc(OCc5cccc(F)c5)c(Cl)c4)c3s2)C1`
a: 4.49

q: // same read-out, input: `FC(F)(F)c1ccc(-c2nn3ncccc3c2-c2ccnc(Nc3ccc4c(c3)OCCO4)n2)cc1`
a: 0.59
